# Test system: Ca1u-6 (Kras^Q61K)
# experiment: Ca1u-6 (Kras^Q61K) antiproliferative activity (CellTiter Glo)
# Assay type: cell-based, human
# protocol.conditions: Ca1u-6 (Kras^Q61K) cells, three days, read-out: Calu-6 anti-proliferative activity IC50
value.kind: IC50

Problem: Quickly give me recorded IC50 for Cc1ccc(NC(=O)c2ccnc(C(F)(F)F)c2)cc1-c1cc(OCCO)nc(C23CCOCC2C3)c1 (single isomer, unassigned)
Solution: 960 nM

---

Please go through the items and note down their IC50.
# System: ERK phosphorylation in Ca1u-6(Kras^Q61K)
# experiment: Ca1u-6 (Kras^Q61K) ERK phosphorylation inhibition (HTRF)
# Assay type: cell-based, human
# protocol.conditions: Homo sapiens, Calu-6, 1 h, Ca1u-6 (Kras^Q61K) cells, 1 hour with compound, read-out: Calu-6 ERK phosphorylation inhibitory activity IC50
The reply should consist of the numeric value with the unit placed after it.

Guide cases for IC50, answers given:
Cc1ccc(NC(=O)c2ccnc(C(F)(F)F)c2)cc1-c1cc(OCC(C)(C)O)nc(C23CCOCC2C3)c1 (stereo not drawn)	330 nM
Cc1ccc(NC(=O)c2ccnc(C(C)(F)F)c2)cc1-c1cc(OCCO)nc(C23CCOCC2C3)c1 (stereo not drawn)	220 nM
Cc1ccc(NC(=O)c2ccnc(C(F)(F)F)c2)cc1-c1cc(OCCO)nc(C23CCOCC2C3)c1 (single isomer, unassigned)	220 nM
Cc1ccc(NC(=O)c2ccnc(C(F)(F)F)c2)cc1-c1cc(OC[C@H](O)CO)nc(C23CCOCC2C3)c1 (stereo partly drawn)	180 nM
Cc1ccc(NC(=O)c2ccnc(C(F)(F)F)c2)cc1-c1cc(N2CC(O)C2)nc(C23CCOCC2C3)c1 (stereo not drawn)	390 nM

Let us examine a further case.
Problem: Complete the entry with IC50 for Cc1ccc(NC(=O)c2ccnc(C(F)F)c2)cc1-c1cc(OCCO)nc(C23CCOCC2C3)c1 (stereo not drawn)
Solution: 170 nM

All values here come from patent US20230046018A1.
